Target: Pks13-TE (Mycobacterium tuberculosis, UniProt I6X8D2)
Sequence (I6X8D2 1451-1733 limits assumed): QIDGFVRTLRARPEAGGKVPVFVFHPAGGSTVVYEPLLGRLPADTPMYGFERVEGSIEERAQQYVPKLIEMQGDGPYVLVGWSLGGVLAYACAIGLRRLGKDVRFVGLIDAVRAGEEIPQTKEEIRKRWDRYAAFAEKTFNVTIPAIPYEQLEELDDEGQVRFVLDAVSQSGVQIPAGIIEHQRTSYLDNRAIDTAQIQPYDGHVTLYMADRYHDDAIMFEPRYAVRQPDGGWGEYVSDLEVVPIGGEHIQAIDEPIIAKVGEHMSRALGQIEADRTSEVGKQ
Assay: biochemical
Assay type: binding
Conditions: read-out: IC50
Could you please mark T for values of IC50 below 600 nM and F for values at or above it?

Query: In plain terms, does Cc1cc(CNC(=O)c2cc(C)nc(N3CCC(C(=O)N4CCN(C(=O)c5ccc6nc(C)ccc6c5)CC4)CC3)n2)cc(C)n1 come in under 600 nM for IC50?
Result: T

* * *

System: WT H37Rv
Experiment: microbe, parasite or virus in culture
Assay type: cell-based, Mycobacterium tuberculosis
Reported WT H37Rv MIC is given for each of the following compounds.

Query: For the compound Cc1cccc2cc(-c3cn(CCc4ccc(C(=O)N(C)C)cc4)nn3)cnc12 [X21497] , what WT H37Rv MIC is on record?
Result: > 125 µM

Query: For the compound Cn1ncc2cc(CCn3cc(-c4ccc(OCc5ccccc5)nc4)nn3)ccc21 [X22346] , what WT H37Rv MIC is on record?
Result: > 125 µM

Query: For the compound COc1ccc(F)cc1-c1ccc(-c2cn(Cc3ccncc3)nn2)cn1 [X22307] , what WT H37Rv MIC is on record?
Result: > 125 µM

* * *

Target: Pks13-TE (Mycobacterium tuberculosis, UniProt I6X8D2)
Assay: biochemical
Assay type: binding
Settings: read-out: IC50
quantity_kind: pIC50
In plain terms, pIC50 is the concentration in mol/L turned into minus its base-10 logarithm.

molecule	target	pIC50
COc1ccc(F)cc1-c1ccc(-c2cn(C3CN(c4ccc(C(=O)N(C)C)cc4)C3)nn2)cn1 [X23488]	Pks13-TE (Mycobacterium tuberculosis, UniProt I6X8D2)	6.21
COc1ccc(OC)c(-c2ccc(-c3cn(C4CN(c5ccc6nn(C)cc6c5)C4)nn3)cn2)c1 [X23479]	Pks13-TE (Mycobacterium tuberculosis, UniProt I6X8D2)	6.34
Cc1cc(C(=O)NCc2ccccc2)nc(N2CC(C(=O)N3CCN(C(=O)c4ccc5nc(C)ccc5c4)CC3)C2)n1 [X22327]	Pks13-TE (Mycobacterium tuberculosis, UniProt I6X8D2)	6.25
COc1ccc(OC)c(-c2ccc(-c3cn(C4CCN(c5ccc(C(=O)N(C)C)cc5)C4)nn3)cn2)c1 (centres unmarked) [X23546]	Pks13-TE (Mycobacterium tuberculosis, UniProt I6X8D2)	6.19
Cc1cc(C(=O)NCc2ccccc2)nc(N2CCC(C(=O)N3CCN(C(=O)c4ccc(-n5nc(C)cc5C)nc4)CC3)CC2)n1 [X22239]	Pks13-TE (Mycobacterium tuberculosis, UniProt I6X8D2)	6.19
Cc1ccc(F)cc1-c1ccc(-c2cn(CCc3ccc4c(cnn4C)c3)nn2)cn1 [X22309]	Pks13-TE (Mycobacterium tuberculosis, UniProt I6X8D2)	6.21

Turning now to a further record.
Query: Value wanted: pIC50 (Pks13-TE (Mycobacterium tuberculosis, UniProt I6X8D2)) of entry Cc1cc(C(=O)NCc2ccccc2)nc(N2CCC(C(=O)N3CCN(C(=O)c4ccc5nc(C)sc5c4)CC3)CC2)n1 [X21408]
Result: 6.34

* * *

Biological target: Pks13-TE (Mycobacterium tuberculosis, UniProt I6X8D2)
Assay: biochemical
Format: binding
Conditions: read-out: IC50
pIC50: −log10 of the molar value.
Reported pIC50 is given for each of the following molecules.

// known answers, use as guide
Cn1ncc2cc(CCn3cc(-c4ccc(N5CC(F)(F)C5)nc4)nn3)ccc21 < 5.00
COc1ccc(F)cc1-c1ccc(-c2cn(Cc3ccncc3)nn2)cn1 < 5.00
COc1ccn2nc(C(=O)N3CCN(C(=O)C4CCN(c5nc(C)cc(C(=O)N6CCCC6)n5)CC4)CC3)cc2c1 < 5.00

Turning now to a further record.
Query: For the molecule Cc1c(-c2cn(CCc3ccc(C(=O)N(C)C)cc3)nn2)cnn1-c1ccccc1F , what pIC50 is on record?
Result: < 5.00
